Cited source for all entries: patent US20240409645A1

# SUBJECT_OF_TEST: T1, human IL-2Rβ (human, UniProt P14784 27-240, limits assumed)
# T1 construct: Recombinant protein, coated (ELISA) or immobilised on CM5 (SPR); also called hu IL-2R; interleukin 2 receptor β-chain
# T1 sequence: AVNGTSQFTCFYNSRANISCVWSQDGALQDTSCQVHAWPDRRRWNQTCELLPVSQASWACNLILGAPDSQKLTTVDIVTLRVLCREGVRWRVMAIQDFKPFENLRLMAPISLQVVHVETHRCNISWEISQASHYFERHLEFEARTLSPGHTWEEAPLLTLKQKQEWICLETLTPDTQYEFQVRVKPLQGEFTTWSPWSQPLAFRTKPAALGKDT
# TEST_DESCRIPTION: P.E. binding ELISA on coated protein
Provide the reported P.E. binding ELISA OD of each item.
Give bare numbers, in OD450 nm.

Request: Suppose we examine the binder FJ1427_P035MP03F01 (VHH, soluble VHH in periplasmic extract; also called clone nr) VHH: QVQLVESGGGLVQVGGSLRVSCAASGRTSGDRNMGWFRQAPGKEREFVGIITWSSGSTVYADSVKGRFTISRDNAKNTVYLDMSSLKPEDTAVYYCAADYYPYSGSWNIMDYWGKGTLVTVSS ; what P.E. binding ELISA OD value has been reported?
Response: 0.221

Request: Suppose we examine the binder FJ1427 P035MP03E07 (VHH, soluble VHH in periplasmic extract; also called clone nr) VHH: QVQLVESGGGLVQAGGSLRLSCAVSGDVFVRYTMAWFRQAPGKEREFVATVTDSGRTTEYVDSVKGRFTVSRDNAKNTVYLQMNNLKPEDTAVYYCAANTDYFRIRSLDANTWGQGTQVTVSS ; what P.E. binding ELISA OD value has been reported?
Response: 0.211

Request: Suppose we examine the binder FJ1427_P035MP02D12 (VHH, soluble VHH in periplasmic extract; also called clone nr) VHH: QVQLVESGGGLVQAGGSLTLSCAASGGAFSSDAKAWFRQAPGKEREFVAAITWAGRGTDYADSVKGRFTITRDNAKATVHLQMNSLKPEDTAVYYCALNPRGVIGPAFRNSNHYTYWGQGTQVTVSS ; what P.E. binding ELISA OD value has been reported?
Response: 0.658

Next binder, P.E. binding ELISA OD to be filled in.
Request: Suppose we examine the binder FJ1427_P035MP02E12 (VHH, soluble VHH in periplasmic extract; also called clone nr) VHH: QVQLQESGGGLVQAGGSMRLSCAASGRTFSNYVIAWFRQAPGKEREFVGAITQTGRGTFYASSVEGRFTLSRLNDQSTVYLQMNSLNPEDTGVYYCSAPRSGRAGTRNQMDYEYWGQGTQVTVSS ; what P.E. binding ELISA OD value has been reported?
Response: 0.108
